Listed next: entries and their corresponding MIC against S. epidermidis ATCC 14490.
System: Staphylococcus epidermidis ATCC 14490
Format: cell-based
Conditions: ATCC 14490, 18 h
Where a SMILES comes first, the peptide text is derived from it. Bridges are numbered along the chain shown (N, C = ends). Roman numbers before positions name the chains, in order. The star is where a group is joined. Palmitoyl = CCCCCCCCCCCCCCCC(=O)*; Lauroyl = CCCCCCCCCCCC(=O)*
Hi! Could you send only the number? It should be in µg/mL, unit omitted.

MOLECULE: CCCCCCCCCCCCCCCC(=O)N[C@@H](CCCCN)C(=O)NCC(=O)N[C@@H](CCCCN)C(N)=O [Pal-KGK-NH2] (Palmitoyl-Lys-Gly-Lys-NH2)
MIC against S. epidermidis ATCC 14490 [µg/mL]: 4

--- query ---
Query :: # return recorded MIC against S. epidermidis ATCC 14490 for entry CCCCCCCCCCCC(=O)N[C@@H](CSSC[C@H](NC(=O)CCCCCCCCCCC)C(=O)N[C@@H](CCCCN)C(=O)N[C@@H](CCCCN)C(N)=O)C(=O)N[C@@H](CCCCN)C(=O)N[C@@H](CCCCN)C(N)=O [Laur-CKK-NH2 dimer] (I: Lauroyl-Cys-Lys-Lys-NH2 / II: Lauroyl-Cys-Lys-Lys-NH2; disulfide I:1-II:1)
Result :: 2
